Counter-ions that a name gives are not always drawn.
Here we list compounds with their recorded Ki when tested on Son of Sevenless (SOS) (Homo sapiens).
Sequence (Q07889 564-1049 limits assumed): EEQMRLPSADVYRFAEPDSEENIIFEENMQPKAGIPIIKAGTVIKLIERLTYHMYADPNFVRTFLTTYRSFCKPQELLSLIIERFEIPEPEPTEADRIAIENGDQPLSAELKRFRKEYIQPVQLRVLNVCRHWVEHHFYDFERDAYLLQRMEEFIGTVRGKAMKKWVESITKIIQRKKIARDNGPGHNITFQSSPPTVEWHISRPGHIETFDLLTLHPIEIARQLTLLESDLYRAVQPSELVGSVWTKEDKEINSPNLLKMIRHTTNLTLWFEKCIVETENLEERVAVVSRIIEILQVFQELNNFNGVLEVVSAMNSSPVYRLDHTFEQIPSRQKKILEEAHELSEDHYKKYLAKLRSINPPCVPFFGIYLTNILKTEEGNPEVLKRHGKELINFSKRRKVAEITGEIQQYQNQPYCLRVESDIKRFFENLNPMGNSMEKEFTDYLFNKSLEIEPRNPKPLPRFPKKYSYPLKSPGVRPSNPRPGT

- compound: "Cc1cc2c(nc(N3CCNCC3)n2Cc2ccc(F)c(C)c2)c(CNC2CCCC2)n1"
  tested-target: "Son of Sevenless (SOS) (Homo sapiens)"
  reading: "> 5000 nM"
- compound: "Cc1cc2nc(N3CCCC(N)C3)n(Cc3ccc(F)c(Cl)c3)c2cc1C (centres unmarked)"
  tested-target: "Son of Sevenless (SOS) (Homo sapiens)"
  reading: "1000 to 5000 nM"
- compound: "C=Cc1cc(Cn2c(N3CCNCC3)nc3cc(C)c(C)cc32)cc(C=C)c1F [Example 46, trifluoroacetate]"
  tested-target: "Son of Sevenless (SOS) (Homo sapiens)"
  reading: "> 5000 nM"
- compound: "Fc1ccc(Cn2c(N3CCNCC3)nc3c(-c4cccnc4)cccc32)cc1Cl"
  tested-target: "Son of Sevenless (SOS) (Homo sapiens)"
  reading: "1000 to 5000 nM"
- compound: "Cc1cc(Cn2c(N3CCNCC3)nc3c(CC(=O)O)cc(Cl)cc32)cc(C)c1F"
  tested-target: "Son of Sevenless (SOS) (Homo sapiens)"
  reading: "500 to 1000 nM"
- compound: "Cc1cc(-c2ccc(CN)cc2)c2nc(N3CCNCC3)n(Cc3cc(C)c(F)c(C)c3)c2c1"
  tested-target: "Son of Sevenless (SOS) (Homo sapiens)"
  reading: "< 500 nM"
- compound: "Cc1cc(Cn2c(N3CCNCC3)nc3c(OCCN4CCCC4)cccc32)ccc1F"
  tested-target: "Son of Sevenless (SOS) (Homo sapiens)"
  reading: "> 5000 nM"

INPUT: Missing value: Ki, Son of Sevenless (SOS) (Homo sapiens), entry Fc1ccc(Cn2c(N3CCNCC3)nc3c(-c4ccnn4-c4ccc(Br)cc4)cc(Cl)cc32)cc1Cl [Example 170, trifluoroacetate] . Fill in?
OUTPUT: < 500 nM
